These measurements were taken from BindingDB's records for doi:10.1016/j.bmcl.2006.10.091.

- ASSAY OVERVIEW: Inhibition of MDC-induced chemotaxis in L1.2 cells expressing CCR4
MEASURED PROPERTY: IC50 (µM)
Expressed in µM, but write only the number.

Return reported IC50. Input compound: CCN(CC)C(C)CCCNc1nccc(NCc2ccc(Cl)cc2Cl)n1 (stereo unspecified) 5
